- assayed system: Tyrosyl-tRNA synthetase, putative (Trypanosoma cruzi (strain CL Brener))
- method summary: Trypanosoma cruzi tyrosyl tRNA synthetase (TcYRS) SOP
- Type: functional
- Set-up: scale not given: direction of the effect not stated beside the values
- measurement conditions: 30 µM
Below, each of the molecules is paired with its reported Percent Effect value.
Give just the number in %; leave the unit off.

Take a look at these entries with their results.
Cc1nc2ccnn2c(C)c1CCC(=O)N1CCN(C2CC2)CC1 ... 13.6
Cc1oc(C(=O)O)cc1S(=O)(=O)Nc1c(F)cccc1-n1cccn1 ... 6.17
Cc1cc(C(C)C(=O)N2CCCN(Cc3cscn3)CC2)c(C)o1 (stereo not drawn) ... 17.1

API: value(readout= Percent Effect, system= Tyrosyl-tRNA synthetase, putative (Trypanosoma cruzi (strain CL Brener)), query= CC[C@@]1(O)CCN(C(=O)c2ccc(-c3cccc(F)c3)cc2)C[C@H]1O ) 10.3

API: value(readout= Percent Effect, system= Tyrosyl-tRNA synthetase, putative (Trypanosoma cruzi (strain CL Brener)), query= COc1ccc(C(O)CNC(=O)Nc2cc(C)nn2C)cc1 (stereo not drawn) ) -2.44

API: value(readout= Percent Effect, system= Tyrosyl-tRNA synthetase, putative (Trypanosoma cruzi (strain CL Brener)), query= CCc1n[nH]c(C2CN(C(=O)c3csnn3)CCO2)n1 (stereo not drawn) ) 11.8
